target: eEF2 (eukaryotic translational elongation factor 2) (Homo sapiens); assay: SPR (Biacore T200); type: binding; set-up: eEF2 protein immobilized on a CM5 chip
metric: Kd

Query :: What does the data say about its Kd? Entry: O=C(NCCN1CCCC1)c1cc(-c2ccc(CN3CCOCC3)cc2)nc2ccc(F)cc12 [DDD107498]
Result :: 0.0541 µM

Source listed as paper PMC10124032.
